- TARGET ENTITY: T1, GFRα4 isoform a (GFRα4a), Fc fusion with 6 His (human)
- T1 construct: the entry holds the whole fusion; also called GFR4α4a; immobilized GFRα4 isoform a
- T1 chain: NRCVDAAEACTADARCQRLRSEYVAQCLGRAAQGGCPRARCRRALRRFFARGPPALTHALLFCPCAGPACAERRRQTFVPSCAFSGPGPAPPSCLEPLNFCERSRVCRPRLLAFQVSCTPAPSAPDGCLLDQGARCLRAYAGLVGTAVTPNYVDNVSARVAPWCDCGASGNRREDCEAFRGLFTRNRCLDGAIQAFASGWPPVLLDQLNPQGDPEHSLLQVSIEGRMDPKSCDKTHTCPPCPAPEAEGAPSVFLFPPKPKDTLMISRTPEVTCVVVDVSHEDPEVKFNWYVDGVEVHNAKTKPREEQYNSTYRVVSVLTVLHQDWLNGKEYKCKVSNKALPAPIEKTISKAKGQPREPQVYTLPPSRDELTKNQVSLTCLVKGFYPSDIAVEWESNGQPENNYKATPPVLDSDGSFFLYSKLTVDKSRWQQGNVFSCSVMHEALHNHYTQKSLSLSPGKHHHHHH
- ASSAY NOTES: phage ELISA, immobilized GFRα4a; first token of the cell (GFRα4b: NT)

BINDER	binding result
9.H2.L1 (scFv, pIII not in the entry; order Vλ-linker-VH; also called scFv 9) scFv: QLVLTQSPSASASLGASVKLTCTLSSAHKTYTIAWHQQQPEKGPRYLMKVKSDGSYSKGDGIPDRFSGSSSGAERYLTISSLQSEDEADYYCGADDNGGYVFGGGTKLTVLGGGSSRSSSSGGGGSGGGGEVQLVESGGGLVQPGGSLRLSCAASGFTFSRHALTWVRQAPGKGLEWVSAIDNAGTTYYASWAKSRFTISRDNAKNSLYLQMNSLRAEDTAVYYCARVFYDINSGYYLDGMDLWGPGTLVTVSS	no binding
7.H2m1.L2 (scFv, pIII not in the entry; order Vλ-linker-VH; The printed entry has an E before QSVKE of the VH; also called scFv 7) scFv: QSVLTQPPSASGTPGQRVTISCSGSSAHKTYTVNWYQQLPGTAPKLLIYVKSDGSYQRPSGVPDRFSGSKSGTSASLAISGLQSEDEADYYCGADDNGGYVFGGGTKLTVLGGGSSRSSSSGGGGSGGGGEQSVKESGGGLVQPGGSLRLSCAASGFTLSRHALTWVRQAPGKGLEWIGAIDNAGTTYYASWAKSRFTISRNTDLHTVYLQMNSLRAEDTAVYFCARVFYDINSGYYLDGMDLWGPGTLVTVSS	no binding
1.H1.L3 (scFv, pIII not in the entry; order Vλ-linker-VH; also called scFv 1) scFv: QSALTQPASVSGSPGQSITISCTGTSAHKTYTVSWYQQHPGKAPKLMIYVKSDGSYNRPSGVSNRFSGSKSGNTASLTISGLQAEDEADYYCGADDNGGYVFGGGTKLTVLGGGSSRSSSSGGGGSGGGGQVQLQESGPGLVKPSETLSLTCAVSGYSISRHALTWIRQPPGKGLEWIGAIDNAGTTYYASWAKSRVTISVDTSKNQFSLKLSSVTAADTAVYYCARVFYDINSGYYLDGMDLWGPGTLVTVSS	no binding
3.H1m1.L3 (scFv, pIII not in the entry; order Vλ-linker-VH; also called scFv 3; H1m.L3) scFv: QSALTQPASVSGSPGQSITISCTGTSAHKTYTVSWYQQHPGKAPKLMIYVKSDGSYNRPSGVSNRFSGSKSGNTASLTISGLQAEDEADYYCGADDNGGYVFGGGTKLTVLGGGSSRSSSSGGGGSGGGGQQSVKESGPGLVKPSETLSLTCAVSGFSLSRHALTWVRQPPGKGLEWIGAIDNAGTTYYASWAKSRVTISRNTDLHTVSLKLSSVTAADTAVYFCARVFYDINSGYYLDGMDLWGPGTLVTVSS	no binding
11.H2m1.L1 (scFv, pIII not in the entry; order Vλ-linker-VH; The printed entry has an E before QSVKE of the VH; also called scFv 11) scFv: QLVLTQSPSASASLGASVKLTCTLSSAHKTYTIAWHQQQPEKGPRYLMKVKSDGSYSKGDGIPDRFSGSSSGAERYLTISSLQSEDEADYYCGADDNGGYVFGGGTKLTVLGGGSSRSSSSGGGGSGGGGEQSVKESGGGLVQPGGSLRLSCAASGFTLSRHALTWVRQAPGKGLEWIGAIDNAGTTYYASWAKSRFTISRNTDLHTVYLQMNSLRAEDTAVYFCARVFYDINSGYYLDGMDLWGPGTLVTVSS	no binding
13.H1.L1 (scFv, pIII not in the entry; order Vλ-linker-VH; also called scFv 13) scFv: QLVLTQSPSASASLGASVKLTCTLSSAHKTYTIAWHQQQPEKGPRYLMKVKSDGSYSKGDGIPDRFSGSSSGAERYLTISSLQSEDEADYYCGADDNGGYVFGGGTKLTVLGGGSSRSSSSGGGGSGGGGQVQLQESGPGLVKPSETLSLTCAVSGYSISRHALTWIRQPPGKGLEWIGAIDNAGTTYYASWAKSRVTISVDTSKNQFSLKLSSVTAADTAVYYCARVFYDINSGYYLDGMDLWGPGTLVTVSS	no binding
15.H1m1.L1 (scFv, pIII not in the entry; order Vλ-linker-VH; also called scFv 15) scFv: QLVLTQSPSASASLGASVKLTCTLSSAHKTYTIAWHQQQPEKGPRYLMKVKSDGSYSKGDGIPDRFSGSSSGAERYLTISSLQSEDEADYYCGADDNGGYVFGGGTKLTVLGGGSSRSSSSGGGGSGGGGQQSVKESGPGLVKPSETLSLTCAVSGFSLSRHALTWVRQPPGKGLEWIGAIDNAGTTYYASWAKSRVTISRNTDLHTVSLKLSSVTAADTAVYFCARVFYDINSGYYLDGMDLWGPGTLVTVSS	no binding
5.H2.L2 (scFv, pIII not in the entry; order Vλ-linker-VH; also called scFv 5) scFv: QSVLTQPPSASGTPGQRVTISCSGSSAHKTYTVNWYQQLPGTAPKLLIYVKSDGSYQRPSGVPDRFSGSKSGTSASLAISGLQSEDEADYYCGADDNGGYVFGGGTKLTVLGGGSSRSSSSGGGGSGGGGEVQLVESGGGLVQPGGSLRLSCAASGFTFSRHALTWVRQAPGKGLEWVSAIDNAGTTYYASWAKSRFTISRDNAKNSLYLQMNSLRAEDTAVYYCARVFYDINSGYYLDGMDLWGPGTLVTVSS	no binding
